Test system: NCI-H522 lung
Test: NCI-60 one-dose screen, 48 h
Details: 10 µM unless noted
Protocol: Growth inhibition of the NCI-H522 human Non-Small Cell Lung tumor cell line is measured as a screen for anti-cancer activity. Cells are grown in 96 well plates and exposed to the test compound for 48 hours. Compounds are tested at a single concentration, which is 10^-5 M for most compounds. The reported endpoint is percent growth (GI% or GIPRCNT), where numbers from 0 - 100% represent growth inhibition, and numbers from -100% - 0 represent cell death. […]
The panel holds about 83,000 compounds, 20% with a hit somewhere; the sample as a whole holds those more often. Activity calls are given as the source filed them. The calls were made as follows: active = growth percent below 10; inactive = the rest.
Pick one and only one: 1 for active, 0 for inactive

Consider the worked cases shown below.
| Compound | Experimental target | Discrete label |
| --- | --- | --- |
| COc1cc(C#Cc2ccc(=O)oc2C#Cc2ccccc2)cc(OC)c1OC | NCI-H522 lung | 0 |
| N#Cc1c(-c2ccccc2)nc2c(c(-c3ccccc3)nn2-c2ccccc2)c1-c1ccc(N2CCOCC2)cc1 | NCI-H522 lung | 0 |
| CCCCCCCCn1ccc2cc(NC(=O)Cn3cc(CN4CCC(C)CC4)nn3)ccc21 | NCI-H522 lung | 0 |
| CC1(C)O[C@H]2OC3CCC(=O)CC3(O)[C@H]2O1 (some centres undefined) | NCI-H522 lung | 0 |
| Cc1ccc(/C=C(\C#N)C(=O)Nc2ncc(Cc3cc(Cl)ccc3Cl)s2)o1 | NCI-H522 lung | 0 |
| C=CCn1c(SCC(=O)Nc2ccc(C(=O)/C=C/c3cc(OC)c(OC)c(OC)c3)cc2)nnc1-c1cc(-c2ccc(OC)cc2)nc2ccccc12 | NCI-H522 lung | 0 |
| CCOC(=O)c1c2c(n3ccccc13)C(=O)c1ncccc1C2=O | NCI-H522 lung | 1 |
| O=C(Cn1nnc2ccccc21)Nc1ccc(-c2nc3ccccc3s2)cc1 | NCI-H522 lung | 0 |
| COc1ccc(Cl)cc1Nc1nc(C(F)(F)F)ccc1C(=O)N/N=C/c1ccccc1Cl | NCI-H522 lung | 1 |
| Nc1c(C(=O)Nc2cccc3ncccc23)sc2nc3c(cc12)C(=O)CCC3 | NCI-H522 lung | 0 |

Recorded test call requested for COc1ccc2nc(Cl)c(/C=C/C(=O)c3ccc(NC(=O)CSc4nnc(-c5ccc(Cl)c(Cl)c5)n4-c4ccccc4)cc3)cc2c1
0

Recorded test call requested for N#Cc1c(NC(=O)c2cccs2)[n+]([O-])c2ccc(Cl)cc2[n+]1[O-]
0

Recorded test call requested for COc1cccc(OC)c1Oc1c(-c2nc3ccccc3s2)c(C)nn1-c1ccccc1
0

Recorded test call requested for CCOC(=O)c1c(-c2ccc(Cl)cc2)c(C#N)c2c(C#N)c(N)nn2c1N
0

Recorded test call requested for Cn1cc(-c2ccc3cc(-c4ccc(CC(=O)Nc5cc(C(C)(C)C)on5)cc4)cnc3c2)cn1
0

Recorded test call requested for COc1cc(-c2nc(SCCC(C)C)nc(N3CCOCC3)c2C#N)cc(OC)c1OC
0

Recorded test call requested for CC(=O)N(Cc1ccccc1)c1nc2ccc(O)c(CN(C)C)c2s1
0

Recorded test call requested for C=C(C)[C@@H]1CC[C@]2(CO)CC[C@]3(C)[C@H](CC[C@@H]4[C@@]5(C)CCC(NCCc6ccc(O)cc6)C(C)(C)[C@@H]5CC[C@]43C)[C@@H]12 (some centres undefined)
1

Recorded test call requested for COc1ccc(-c2cc(-c3ccc(OC)cc3)nc(NCCCNc3ccnc4cc(Cl)ccc34)n2)cc1
0

Values were extracted from PubChem BioAssay (NCI).
